# ASSAY_SYSTEM: human GPR120 (Homo sapiens, UniProt Q5NUL3)
# Sequence (Q5NUL3 whole entry): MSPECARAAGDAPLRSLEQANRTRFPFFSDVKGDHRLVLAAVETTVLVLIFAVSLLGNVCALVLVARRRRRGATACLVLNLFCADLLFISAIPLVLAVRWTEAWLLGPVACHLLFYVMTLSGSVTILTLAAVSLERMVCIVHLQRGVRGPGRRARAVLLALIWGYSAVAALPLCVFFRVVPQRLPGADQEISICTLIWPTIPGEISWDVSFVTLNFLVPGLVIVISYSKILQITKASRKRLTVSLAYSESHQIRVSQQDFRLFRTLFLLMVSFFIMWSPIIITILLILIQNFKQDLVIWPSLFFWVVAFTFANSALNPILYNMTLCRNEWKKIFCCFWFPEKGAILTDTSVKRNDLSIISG
# EXPERIMENT_NOTES: GPR120 pERK AlphaScreen SureFire assay (human)
# CONDITION_LABEL: CHO cells stably transfected with short form of human GPR120
READOUT_TYPE: EC50 (nM)

As a guide, the following entries are already answered.
EC50 measured on O=C(O)COCCC12CCC(c3ccc(F)c(Oc4ccc(F)cc4)c3)(CC1)OC2 [Example 88] = 340

EC50 measured on O=C(O)C1CC1COCC12CCC(c3cccc(Oc4ccccc4)c3)(CC1)OC2 (centres unmarked) [Example 97] = 390

EC50 measured on O=C(O)COCCC12CCC(c3cccc(Oc4ccc(F)c(F)c4)n3)(CC1)OC2 [Example 116] = 1150

EC50 measured on CC(C)COc1cccc(C23CCC(CC[C@@H]4C[C@H]4C(=O)O)(CC2)CO3)c1 (single isomer, unassigned) [Example 66] = 2080

EC50 measured on N#Cc1cccc(Oc2cccc(C34CCC(CCOCC(=O)O)(CC3)CO4)c2)c1 [Example 46] = 2570

P = O=C(O)COCCC12CCC(c3ccccc3Oc3ccccc3)(CC1)OC2 [Example 37]
Q = Cc1cccc(Oc2cccc(C34CCC(CCOCC(=O)O)(CC3)CO4)c2)c1 [Example 43]
// query Compare P and Q by numeric EC50 and name the larger one. Reply with the label of the item you choose.
// result P
(P: 1140 nM, Q: 550 nM)

* * *

# ASSAY_SYSTEM: human GPR120 (Homo sapiens)
# EXPERIMENT_NOTES: GPR120 pERK AlphaScreen SureFire assay (human)
# CONDITION_LABEL: CHO cells stably transfected with short form of human GPR120
# Description: GPR120 activity was monitored by measuring phosphorylation of ERK (pERK), since G protein receptors are known to activate the ERK signaling cascade either directly and/or through recruitment of arrestin that serves as a scaffold for downstream signaling events. GPR120 pERK AlphaScreen SureFire Assay The human and mouse GPR120-mediated intracellular phosphorylated ERK assays were established using CHOA12 cells stably transfected with the short form of human or mouse GPR120 receptor. […]
Counter-ions that a name gives are not always drawn.
READOUT_TYPE: EC50 (nM)

As a guide, the following entries are already answered.
human GPR120 (Homo sapiens) assay, compound O=C(O)COCCC12CCC(c3cccc(Oc4cccnc4)c3)(CC1)OC2 [Example 21, TFA salt] , recorded EC50 = 6860

human GPR120 (Homo sapiens) assay, compound CCc1cccc(Oc2cccc(C34CCC(CC[C@@H]5C[C@H]5C(=O)O)(CC3)CO4)c2)c1 , recorded EC50 = 1890

human GPR120 (Homo sapiens) assay, compound O=C(O)CNC(=O)CC12CCC(c3cccc(Oc4ccccc4)c3)(CC1)OC2 , recorded EC50 = 5020

human GPR120 (Homo sapiens) assay, compound CCc1cccc(Oc2cccc(C34CCC(CCOCC(=O)O)(CC3)CO4)c2)c1 , recorded EC50 = 1600

human GPR120 (Homo sapiens) assay, compound O=C(O)/C=C/CCC12CCC(c3cccc(Oc4ccccc4)c3)(CC1)OC2 , recorded EC50 = 100

a = Cc1nc(-c2ccccc2)c(C23CCC(CCCCC(=O)O)(CC2)CO3)s1
b = COc1cccc(C23CCC(CCCCC(=O)O)(CC2)CO3)c1
// query Would you kindly point out which of a and b has the smaller EC50 figure? Reply with the label of the item you choose.
// result b

I = Cc1nc(-c2cccc(C34CCC(CCOCC(=O)O)(CC3)CO4)c2)no1
II = O=C(O)COCCCC12CCC(c3cccc(Oc4ccccc4)c3)(CC1)OC2
// query Would you kindly point out which of I and II has the smaller EC50 figure? Reply with the label of the item you choose.
// result II
(II: 980 nM, I: 6760 nM)

P = OCC(O)CCC12CCC(c3cccc(Oc4ccccc4)c3)(CC1)OC2 (centres unmarked)
Q = O=C(O)COCCC12CCC(c3cccc(Oc4ccc(F)cc4)c3)(CC1)CO2
// query Compare P and Q by numeric EC50 and name the larger one. Reply with the label of the item you choose.
// result Q
(Q: 3440 nM, P: 610 nM)

A = Cc1ccc(Oc2cc(F)cc(C34CCC(CCOCC(=O)O)(CC3)CO4)c2)cc1F
B = OCCCCC12CCC(c3cccc(Oc4ccccc4)c3)(CC1)OC2
// query Would you kindly point out which of A and B has the smaller EC50 figure? Reply with the label of the item you choose.
// result A
